Every entry's value here was drawn from the supplement of paper PMC3334620.

# Experimental system: Pdr3 (UniProt P33200)
# Sequence: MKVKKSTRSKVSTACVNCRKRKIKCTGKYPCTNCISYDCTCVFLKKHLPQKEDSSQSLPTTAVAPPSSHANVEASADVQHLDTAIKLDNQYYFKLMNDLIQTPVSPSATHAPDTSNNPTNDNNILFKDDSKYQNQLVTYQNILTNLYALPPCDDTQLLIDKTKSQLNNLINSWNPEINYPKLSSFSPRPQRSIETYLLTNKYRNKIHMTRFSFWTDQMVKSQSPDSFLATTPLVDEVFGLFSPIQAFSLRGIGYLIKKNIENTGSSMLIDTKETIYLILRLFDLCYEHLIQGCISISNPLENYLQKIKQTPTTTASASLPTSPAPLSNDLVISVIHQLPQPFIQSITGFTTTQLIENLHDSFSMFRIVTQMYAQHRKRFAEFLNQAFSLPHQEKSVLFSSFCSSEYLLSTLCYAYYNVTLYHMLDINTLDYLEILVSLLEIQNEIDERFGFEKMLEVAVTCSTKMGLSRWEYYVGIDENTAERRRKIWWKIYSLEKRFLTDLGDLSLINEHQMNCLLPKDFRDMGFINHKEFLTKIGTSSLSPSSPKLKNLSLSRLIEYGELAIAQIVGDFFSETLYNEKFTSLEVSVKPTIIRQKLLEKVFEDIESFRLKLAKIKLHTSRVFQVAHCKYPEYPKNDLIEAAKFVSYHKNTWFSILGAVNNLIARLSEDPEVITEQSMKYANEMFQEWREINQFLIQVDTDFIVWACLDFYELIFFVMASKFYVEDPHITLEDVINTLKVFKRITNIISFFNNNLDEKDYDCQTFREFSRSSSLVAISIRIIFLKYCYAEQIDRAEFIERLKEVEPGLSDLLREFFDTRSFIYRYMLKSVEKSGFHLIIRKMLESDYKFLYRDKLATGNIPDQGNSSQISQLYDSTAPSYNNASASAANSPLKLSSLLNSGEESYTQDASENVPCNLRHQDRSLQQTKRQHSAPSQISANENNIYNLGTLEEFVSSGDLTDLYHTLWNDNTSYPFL
# Experimental protocol: PBM E-score (8-mer binding enrichment) (E-score (-0.5 to 0.5)); higher = stronger / more preferred TF binding
# Protocol conditions: protein concentration: 200 nM; construct: GST-full length
In all, about 33,000 sequences were measured (“E-score (-0.5 to 0.5)”: median about -0.035, highest 2% from about 0.35 on). The list comes from a sample in which the highest values are over-represented; it also holds close analogues and randomly drawn sequences.
PBM E-score below -0.009 gives N; PBM E-score at or above it gives Y.

The examples below pair each entry with its known result.
GCCATTAC: Y
CCGTTCCA: Y
AGTGCGGG: Y
AATTCCAA: N
AGGTTCCC: Y

Check this sequence for PBM E-score at or above -0.009: ACGTTCCG
Y

Item AGCACGAG with PBM E-score of -0.009 or above?
Y

Given CTACTGTA , state whether its PBM E-score is at least -0.009.
N

Is PBM E-score for TGTCGTAA at or above -0.009?
N

Textbook exercise: given the entry GTGCTTCA , state whether its PBM E-score is greater than or equal to -0.009.
N

Answer whether PBM E-score of CTAGAAGC is greater than or equal to -0.009.
N

API: above_or_equal(metric=PBM E-score, cutoff=-0.009) for item AGCTCCCT
N

----------
Listed here: items and their measured PBM E-score.
# Experimental system: Pdr3 (UniProt P33200)
# Sequence: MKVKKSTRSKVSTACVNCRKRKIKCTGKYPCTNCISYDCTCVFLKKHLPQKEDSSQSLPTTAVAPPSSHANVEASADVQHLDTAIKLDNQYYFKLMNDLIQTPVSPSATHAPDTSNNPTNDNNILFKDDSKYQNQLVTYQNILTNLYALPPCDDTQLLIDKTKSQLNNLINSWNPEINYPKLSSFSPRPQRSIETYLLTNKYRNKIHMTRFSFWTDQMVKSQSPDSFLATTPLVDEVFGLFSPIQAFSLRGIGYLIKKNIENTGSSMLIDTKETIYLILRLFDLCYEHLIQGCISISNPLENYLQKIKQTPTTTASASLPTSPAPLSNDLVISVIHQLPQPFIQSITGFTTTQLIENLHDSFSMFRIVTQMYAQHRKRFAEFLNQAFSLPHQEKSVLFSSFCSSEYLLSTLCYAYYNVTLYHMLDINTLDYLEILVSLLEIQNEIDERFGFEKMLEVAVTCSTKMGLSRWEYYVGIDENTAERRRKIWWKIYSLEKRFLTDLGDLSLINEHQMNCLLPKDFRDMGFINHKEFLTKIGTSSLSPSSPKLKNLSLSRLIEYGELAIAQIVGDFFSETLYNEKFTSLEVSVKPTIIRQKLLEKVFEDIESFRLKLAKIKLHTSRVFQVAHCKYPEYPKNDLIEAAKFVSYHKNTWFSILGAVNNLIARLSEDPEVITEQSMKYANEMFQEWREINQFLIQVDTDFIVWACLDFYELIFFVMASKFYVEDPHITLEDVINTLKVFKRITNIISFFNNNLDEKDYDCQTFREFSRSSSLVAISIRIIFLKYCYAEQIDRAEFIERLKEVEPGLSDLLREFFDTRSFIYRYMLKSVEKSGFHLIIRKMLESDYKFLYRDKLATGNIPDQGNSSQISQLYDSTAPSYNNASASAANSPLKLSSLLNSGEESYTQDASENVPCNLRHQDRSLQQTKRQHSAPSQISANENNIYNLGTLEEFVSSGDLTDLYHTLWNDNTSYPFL
# Experimental protocol: PBM E-score (8-mer binding enrichment) (E-score (-0.5 to 0.5)); higher = stronger / more preferred TF binding
# Protocol conditions: protein concentration: 200 nM; construct: GST-full length
The full ranking holds about 33,000 sequences; the median of “E-score (-0.5 to 0.5)” is about -0.035, and the highest 2% start at about 0.35. This excerpt belongs to a sample that is enriched for the highest values.

CACCGACC: 0.0698

Read off the recorded PBM E-score for AAGCCGTC
0.178

Tell me measured PBM E-score for CATGAACG please.
-0.0457

// Input: CCGGGTGA . Output its PBM E-score only.
0.404

Answer with the recorded PBM E-score of ATGGTCCA only.
-0.203

// fetch PBM E-score given entry AAGGTCAG
-0.201

Supply PBM E-score value. Item: ACCCACAG
-0.278

----------
# Experimental system: Pdr3 (UniProt P33200)
# Sequence: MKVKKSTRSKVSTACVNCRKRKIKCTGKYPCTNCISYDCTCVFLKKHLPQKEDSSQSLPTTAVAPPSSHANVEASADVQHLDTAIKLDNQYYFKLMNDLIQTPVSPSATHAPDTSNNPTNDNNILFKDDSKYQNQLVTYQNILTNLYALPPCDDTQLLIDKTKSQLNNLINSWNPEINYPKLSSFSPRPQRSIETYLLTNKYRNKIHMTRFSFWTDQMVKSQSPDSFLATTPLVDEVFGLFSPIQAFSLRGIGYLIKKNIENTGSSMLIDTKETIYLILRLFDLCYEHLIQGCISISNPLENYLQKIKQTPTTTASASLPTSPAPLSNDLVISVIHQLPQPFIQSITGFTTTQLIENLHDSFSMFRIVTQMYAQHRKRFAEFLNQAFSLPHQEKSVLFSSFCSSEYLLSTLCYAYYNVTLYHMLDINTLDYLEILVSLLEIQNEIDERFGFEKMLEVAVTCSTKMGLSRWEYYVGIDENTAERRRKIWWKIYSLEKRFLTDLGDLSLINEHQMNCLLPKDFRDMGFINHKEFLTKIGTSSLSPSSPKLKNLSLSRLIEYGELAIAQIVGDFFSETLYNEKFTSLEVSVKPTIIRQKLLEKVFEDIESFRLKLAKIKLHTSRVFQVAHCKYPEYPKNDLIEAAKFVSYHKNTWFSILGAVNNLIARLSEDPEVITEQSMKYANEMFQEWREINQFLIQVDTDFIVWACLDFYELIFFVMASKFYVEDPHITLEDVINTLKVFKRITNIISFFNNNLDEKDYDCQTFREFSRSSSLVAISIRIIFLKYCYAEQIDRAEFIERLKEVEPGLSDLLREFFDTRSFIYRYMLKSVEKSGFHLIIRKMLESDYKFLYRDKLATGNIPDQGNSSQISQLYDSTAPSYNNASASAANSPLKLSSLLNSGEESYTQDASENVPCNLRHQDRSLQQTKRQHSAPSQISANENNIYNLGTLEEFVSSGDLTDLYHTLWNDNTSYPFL
# Experimental protocol: PBM E-score (8-mer binding enrichment) (E-score (-0.5 to 0.5)); higher = stronger / more preferred TF binding
# Protocol conditions: protein concentration: 200 nM; construct: GST-full length
Whole data set: some 33,000 sequences, median “E-score (-0.5 to 0.5)” near -0.035, cut for the highest 2% near 0.35. The sample as a whole holds a higher share of the highest values than the screen did.
Reported metric: PBM E-score
Just the number, please, no unit attached.

AGGTGTGA: -0.138
CCCCCCGG: 0.132
CCGGAACC: 0.476

Read the entry CGGGACAC and write its reported PBM E-score.
0.245

Give the value of PBM E-score reported for the following: ACCGGGGG
0.0642

// fetch PBM E-score given entry AACCGCTG
-0.114

Consider the sequence ACCCCGGG and give its recorded PBM E-score.
0.376

Please give measured PBM E-score of the following entry: AAACGCGG
0.245

Fill in reported PBM E-score for this entry: ATTGCGGA
0.328

Hello, please tell me recorded PBM E-score for this one: AGGGACAG
-0.3

Consider the sequence CTCGCGCA and give its recorded PBM E-score.
-0.029
